Entries and their measured EC50 of mIL-2 release, DO11.10-hCD137 assay, crosslinked follow.
- measured_on: human CD137 expressed on DO11.10 cells (DO11.10-hCD137) (human, UniProt Q07011 24-255)
- Sequence (Q07011 24-255): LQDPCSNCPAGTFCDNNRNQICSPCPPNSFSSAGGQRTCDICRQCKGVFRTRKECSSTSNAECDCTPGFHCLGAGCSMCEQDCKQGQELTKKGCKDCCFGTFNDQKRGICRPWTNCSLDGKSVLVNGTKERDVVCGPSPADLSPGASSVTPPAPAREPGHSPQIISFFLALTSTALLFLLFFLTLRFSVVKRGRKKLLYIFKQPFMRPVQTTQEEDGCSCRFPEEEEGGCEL
- assay_name: cell-based or functional assay
Record the value in nM, omitting the unit from your answer.

binder	measurement
FS20-22-49AA/FS30-35-14 (bispecific antibody, human IgG1, kappa, L234A L235A, V domains shown, IgG1 with LALA; also called OX40/CD137 mAb^2) VH: EVQLLESGGGLVQPGGSLRLSCAASGFTFSAYNIHWVRQAPGKGLEWVSDISPYGGATNYADSVKGRFTISRDNSKNTLYLQMNSLRAEDTAVYYCARNLYELSAYSYGADYWGQGTLVTVSS VL: EIVLTQSPGTLSLSPGERATLSCRASQSVSSSYLAWYQQKPGQAPRLLIYGASSRATGIPDRFSGSGSGTDFTLTISRLEPEDFAVYYCQQYYYSSPITFGQGTKVEIKR	5.1
FS20-22-49AA/FS30-10-12 (bispecific antibody, human IgG1, kappa, L234A L235A, V domains shown, IgG1 with LALA; also called OX40/CD137 mAb^2) VH: EVQLLESGGGLVQPGGSLRLSCAASGFTFSSYDMSWVRQAPGKGLEWVSDIDPTGSKTDYADSVKGRFTISRDNSKNTLYLQMNSLRAEDTAVYYCARDLTVYGFDYWGQGTLVTVSS VL: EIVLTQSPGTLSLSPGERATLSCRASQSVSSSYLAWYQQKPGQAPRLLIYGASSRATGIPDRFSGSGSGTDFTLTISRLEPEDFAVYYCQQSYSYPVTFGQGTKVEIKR	9.5

Now consider the entry below.
# EC50 of mIL-2 release, DO11.10-hCD137 assay, crosslinked lookup, item FS20-22-49AA/FS30-5-37 (bispecific antibody, human IgG1, kappa, L234A L235A, V domains shown, IgG1 with LALA; also called OX40/CD137 mAb^2) VH: EVQLLESGGGLVQPGGSLRLNCAASGFTFSSYAMSWVRQAPGKGLEWVSAISGSGGSTYYADSVKGRFTISRDNSKNTLYLQMNSLRAEDTAVYYCARSYDKYWGSSIYSGLDYWGQGTLVTVSS VL: EIVLTQSPGTLSLSPGERATLSCRASQSVSSSYLAWYQQKPGQAPRLLIYGASSRATGIPDRFSGSGSGTDFTLTISRLEPEDFAVYYCQQYYSYYPVTFGQGTKVEIKR
13.4
